B1: Caulobacter ParB omega fusion; a variant is named by its letters at X, in order, B8GW30 (parent)
chain: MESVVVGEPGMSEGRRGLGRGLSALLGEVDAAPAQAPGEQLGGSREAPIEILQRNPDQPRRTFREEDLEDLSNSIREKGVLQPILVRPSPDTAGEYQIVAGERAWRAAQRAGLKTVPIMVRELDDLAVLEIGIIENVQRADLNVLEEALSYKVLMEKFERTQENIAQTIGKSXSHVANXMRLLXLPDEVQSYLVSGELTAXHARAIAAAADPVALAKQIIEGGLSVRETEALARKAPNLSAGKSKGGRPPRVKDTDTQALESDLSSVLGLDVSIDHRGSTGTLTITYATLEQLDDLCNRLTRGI

# Variants of: B1
# assay explanation: one-hybrid fitness for binding parS DNA (scaled: cognate 1, non-cognate 0); higher = stronger binding
# condition label: with parS DNA site
Whole data set: some 81,000 sequences, median “one-hybrid fitness for binding parS DNA” near -0.17, cut for the highest 2% near 0.51. The sample as a whole holds a higher share of the highest values than the screen did.
Everything with one-hybrid fitness for binding parS DNA lower than 0.6 is N; everything else, including exactly 0.6, is Y.

RAMG = Y
RQSR = N
RQDT = Y
VKMG = N
RSND = N
RDVT = N

### Prompt Entry `RNKS` : is its one-hybrid fitness for binding parS DNA no less than 0.6?
### Response Y

### Prompt Entry `FIPR` : is its one-hybrid fitness for binding parS DNA no less than 0.6?
### Response N

### Prompt Entry `RSNH` : is its one-hybrid fitness for binding parS DNA no less than 0.6?
### Response N

### Prompt Entry `RNKN` : is its one-hybrid fitness for binding parS DNA no less than 0.6?
### Response N

### Prompt Entry `RRSS` : is its one-hybrid fitness for binding parS DNA no less than 0.6?
### Response Y

### Prompt Entry `RNVD` : is its one-hybrid fitness for binding parS DNA no less than 0.6?
### Response N
